assayed_system: Beta-1 adrenergic receptor (Homo sapiens)
Sequence (P08588 whole entry): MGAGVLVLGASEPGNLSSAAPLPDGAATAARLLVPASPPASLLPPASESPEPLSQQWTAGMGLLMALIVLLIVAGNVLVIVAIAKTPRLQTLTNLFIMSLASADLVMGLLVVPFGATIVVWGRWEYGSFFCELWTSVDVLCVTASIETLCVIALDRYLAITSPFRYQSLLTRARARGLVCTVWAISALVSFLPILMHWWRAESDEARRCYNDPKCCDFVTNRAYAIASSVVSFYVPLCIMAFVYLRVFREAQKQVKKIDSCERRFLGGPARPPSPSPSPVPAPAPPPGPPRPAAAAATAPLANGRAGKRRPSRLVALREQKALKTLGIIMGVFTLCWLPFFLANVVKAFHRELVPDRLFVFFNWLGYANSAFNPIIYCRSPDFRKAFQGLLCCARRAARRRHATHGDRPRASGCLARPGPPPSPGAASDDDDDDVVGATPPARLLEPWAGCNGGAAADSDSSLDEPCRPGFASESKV
assay_info: DRUGMATRIX: Adrenergic beta1 radioligand binding (ligand: [125I] Cyanopindolol)
Format: cell membranes, CHO-K1, Membrane
experimental_conditions: Not Active = under 50% inhibition at 10 µM; read-out: Ki
Listing: Ki of selected compounds

[
  {
    "compound": "COC(=O)CCc1ccc(OCC(O)CNC(C)C)cc1 (configuration not stated)",
    "Ki": "114 nM"
  },
  {
    "compound": "Cc1cc2c(OCC(CNC(C)(C)C)OC(=O)c3ccccc3)cccc2[nH]1 (configuration not stated)",
    "Ki": "27 nM"
  }
]

----------
assayed_system: Cytochrome P450 2D6 (Homo sapiens); note: in other assays of this panel Not Active means under 50% inhibition at 10 µM
Sequence (P10635 whole entry): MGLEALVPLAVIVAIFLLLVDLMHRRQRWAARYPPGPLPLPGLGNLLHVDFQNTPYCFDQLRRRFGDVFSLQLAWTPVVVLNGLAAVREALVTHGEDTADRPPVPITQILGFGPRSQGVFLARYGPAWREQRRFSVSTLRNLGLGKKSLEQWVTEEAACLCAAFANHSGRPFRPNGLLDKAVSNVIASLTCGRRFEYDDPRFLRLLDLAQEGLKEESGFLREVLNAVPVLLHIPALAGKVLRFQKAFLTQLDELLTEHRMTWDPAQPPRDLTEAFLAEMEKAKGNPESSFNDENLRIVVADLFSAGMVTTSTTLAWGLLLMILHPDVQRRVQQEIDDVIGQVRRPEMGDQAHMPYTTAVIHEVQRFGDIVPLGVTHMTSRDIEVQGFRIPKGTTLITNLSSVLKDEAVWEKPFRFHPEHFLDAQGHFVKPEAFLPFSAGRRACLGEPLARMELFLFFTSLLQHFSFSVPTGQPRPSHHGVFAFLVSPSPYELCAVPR
experimental_conditions: bti-tn-5b1-4

[
  {
    "smiles_input": "CC[C@@H](C(=O)[C@@H](C)[C@@H](O)[C@H](C)[C@@H]1O[C@@H]([C@@H](CC)C(=O)O)CC[C@@H]1C)[C@H]1O[C@]2(C=C[C@@H](O)[C@]3(CC[C@@](C)([C@H]4CC[C@](O)(CC)[C@H](C)O4)O3)O2)[C@H](C)C[C@@H]1C",
    "assayed_system": "Cytochrome P450 2D6 (Homo sapiens)",
    "Ki": "Not Active"
  },
  {
    "smiles_input": "Cc1ccc(NC(=O)c2ccc(CN3CCN(C)CC3)cc2)cc1Nc1nccc(-c2cccnc2)n1",
    "assayed_system": "Cytochrome P450 2D6 (Homo sapiens)",
    "Ki": "Not Active"
  },
  {
    "smiles_input": "O=C1O[C@H]([C@@H](O)CO)C(O)=C1O",
    "assayed_system": "Cytochrome P450 2D6 (Homo sapiens)",
    "Ki": "Not Active"
  }
]

Value source: ChEMBL document CHEMBL1909046
